These data points were gathered from PubChem BioAssay (NCATS).

assay: qHTS for differential inhibitors of proliferation of Plasmodium falciparum line GB4 (AID 1816);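 note: parasite growth measured after 72 h incubation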
condition.set: Plasmodium falciparum GB4 proliferation inhibition; series mostly up to 28.7 µM
Inconclusive results are not listed. Activity calls are given as the source filed them. Calls come from the whole dose curve; as a rule, active = well fitted curve in the direction sought with a large enough effect; inconclusive = small, poorly fitted or top-dose-only effect, or another doubt; inactive = no such curve, though single readings can be large or run the other way.
Just give me one of these, please: yes for active, no for inactive

Just curious, what result did CCCCCCCC/C=C\CCCCCCCC(=O)NCCc1ccc(O)c(O)c1 get here?
yes

Just curious, what result did COc1ccc(-c2ccc(N)[n+](CCCC(=O)O)n2)cc1 get here?
no

Just curious, what result did CN1CCC2(CCN3CCc4c(oc5ccccc45)C3C2)N(C)C1=O (stereo not drawn) get here?
no

Just curious, what result did O=c1[nH]ccc2c(O)cccc12 get here?
no

Just curious, what result did CCCOC(=O)c1c(-c2ccccc2)nc(CC)c(C(=O)SCC)c1CCC get here?
yes

Just curious, what result did CCSC(=N)N get here?
no

Just curious, what result did O=c1ccc2c(OCCCCc3ccccc3)c3ccoc3cc2o1 get here?
yes

Just curious, what result did CC(C)NC[C@H](O)COc1ccc(CC(N)=O)cc1 get here?
no

Just curious, what result did O=C(O)c1cccnc1C(=O)O get here?
no

Just curious, what result did NC(=O)c1ccccc1 get here?
no

Just curious, what result did O=S(=O)(c1cccc2c(Cl)cccc12)N1CCCNCC1 get here?
yes

Just curious, what result did CCCc1c(-c2ccc(O)cc2)nn(-c2ccc(O)cc2)c1-c1ccc(O)cc1 get here?
no

Just curious, what result did CCCCCCCCCCCCCCCCCCOC[C@H](COP(=O)([O-])OCC[N+](C)(C)C)OC get here?
no

Just curious, what result did Nc1ccc(N2C(=O)c3ccccc3C2=O)c(Cl)c1 get here?
no

Just curious, what result did O=c1ccn([C@@H]2O[C@H](COP(=O)(O)OP(=O)(O)O)[C@@H](O)[C@H]2O)c(=O)[nH]1 get here?
no

Just curious, what result did N[C@@H](CCC(=O)N[C@H](CSN=O)C(=O)NCC(=O)O)C(=O)O get here?
no

Just curious, what result did N=C(N)c1ccc(OCCCCCOc2ccc(C(=N)N)cc2)cc1 (tested in a mixture with another compound) get here?
yes

Just curious, what result did CC(C)(C)c1cc(/C=C(\C#N)C(N)=S)cc(C(C)(C)C)c1O get here?
yes

Just curious, what result did CCCCCCCCCCC/C=C\C(C)(C)/C=C\CCCC(=O)O get here?
no

Just curious, what result did CC(N)=O get here?
no

Just curious, what result did C=CC1(C)CC(=O)C2(O)C(C)(O1)C(OC(C)=O)C(O)C1C(C)(C)CCC(O)C12C (stereo not drawn) get here?
no

Just curious, what result did CCOC(=O)C12CC1/C(=N/O)c1ccccc1O2 (stereo not drawn) get here?
no

Just curious, what result did Oc1ccc(Cn2cc[nH]c2=S)cc1 get here?
no

Just curious, what result did CC(N)(C(=O)O)c1ccc(C(=O)O)cc1 (stereo not drawn) get here?
no

Just curious, what result did CCCC[C@@]1(C2CCCC2)Cc2cc(OCC(=O)O)c(Cl)c(Cl)c2C1=O get here?
yes

Just curious, what result did CC(N)=NCCCC[C@@H](N)C(=O)O get here?
no

Just curious, what result did CC(C)(C)NCC(O)COc1cccc2[nH]c(=O)[nH]c12 (stereo not drawn) get here?
no

Just curious, what result did O[Si](CCCN1CCCCC1)(c1ccc(F)cc1)C1CCCCC1 (stereo not drawn) get here?
yes

Just curious, what result did C=CCN1CCc2c(cc(O)c(O)c2Br)[C@@H](c2ccccc2)C1 get here?
yes

Just curious, what result did N#CC(=C(\N)Sc1ccccc1N)/C(C#N)=C(/N)Sc1ccccc1N get here?
yes

Just curious, what result did CNCCNS(=O)(=O)c1cccc2cnccc12 get here?
no

Just curious, what result did NC1(C(=O)O)CCCCC1 get here?
no

Just curious, what result did CC1C(=O)N(C)C(=O)c2nc[nH]c21 (stereo not drawn) get here?
no

Just curious, what result did CC(=O)[C@H]1CCC2C3CC=C4C[C@@H](OS(=O)(=O)O)CC[C@]4(C)C3CC[C@@]21C (stereo partly drawn) get here?
no

Just curious, what result did COc1cc(CC(=O)O)ccc1O get here?
no

Just curious, what result did O=C(O)/C=C/c1ccc(O)c(O)c1 get here?
no

Just curious, what result did O=c1[nH]c(=O)c2nc3ccccc3nc2[nH]1 get here?
no

Just curious, what result did CC(=O)C(C)=O get here?
no
